B1: FERM and PDZ domain-containing protein 4, residues 75 to 154; numbered along this chain, Q14CM0 (parent)
chain: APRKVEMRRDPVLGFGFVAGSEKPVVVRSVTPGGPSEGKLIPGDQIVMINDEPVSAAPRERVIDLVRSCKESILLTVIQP

Variants of: B1
protocol: abundance fitness (aPCA) (normalised: wild type 0, dead -1); higher = more abundant; growth selection in yeast, the domain comes from the species named
measurement conditions: Homo sapiens
assay endpoint: abundance fitness
Give bare numbers.

I73F    -0.242
L74S    0.024
A19L    0.045
R67W    -0.182
S29I    -0.221

I'm hoping you can list abundance fitness for every variant here, please.
1. V12T
2. L74E
3. P11G
4. V77S
5. R59M
6. K23A
7. P53I
8. V66I

0.049
0.005
-0.128
-0.655
-0.039
-0.097
0.116
-0.009

I have 4 variants here; please give me abundance fitness for each one.
1. P35N
2. A57E
3. S29N
4. V62R

[-0.213, -0.022, -0.032, -0.917]

Kindly give each listed record's abundance fitness.
1. R61A
2. R8W
3. P2H
4. L74R
5. A1Y
6. V27Y
7. V62F

[-0.018, -0.043, 0.023, 0.037, -0.14, -1.02, -0.17]

// input: 4 variants below; output: abundance fitness for each
1. V30Q
2. C69D
3. E52Y
4. V47G

1. -0.801
2. -0.323
3. -0.045
4. -0.426

// batch mode: one abundance fitness value per listed entry
1. F17P
2. S21M
3. K4N
4. K39A
5. K70C
6. V5T
7. E52L
8. I41C

[-0.916, -0.033, -0.218, -0.079, -0.115, -0.325, -0.026, -0.014]

Dear colleague, could you please provide abundance fitness for the variants listed below?
1. G38T
2. R28Y
3. L74W
4. E71Q

1. -0.137
2. -0.137
3. -0.024
4. -0.038

Record abundance fitness for all entries; do not skip any.
1. E52R
2. G16P
3. E71V
4. V25Y
5. R28D
6. V5Q
7. V12E

[-0.053, -0.977, -0.164, -0.144, -0.038, -0.522, -0.068]

Give abundance fitness for each listed item.
1. E6R
2. F15Q
3. L75E
4. A57D
5. P2R

1: -0.029; 2: -0.776; 3: -0.514; 4: -0.052; 5: -0.01
